- protocol-summary: refractive index (Na D-line) (dimensionless); xn = mol fraction of the nth substance listed
- experimental-parameters: 293.15 K; 100 kPa; Liquid; Standard Abbe refractometry; x1 = 0.1
quantity-measured: refractive index
// print number alone

Exercise: Determine from records and report refractive index for CN1CCC[C@H]1c1cccnc1 [(-)-3-(N-methylpyrrolidino)pyridine] + CCCCO
Key: 1.42126

Exercise: Determine from records and report refractive index for CN1CCC[C@H]1c1cccnc1 [(-)-3-(N-methylpyrrolidino)pyridine] + CCC(C)O
Key: 1.41889

Exercise: Determine from records and report refractive index for CN1CCC[C@H]1c1cccnc1 [(-)-3-(N-methylpyrrolidino)pyridine] + CC(O)CO
Key: 1.45151

Exercise: Determine from records and report refractive index for CN1CCC[C@H]1c1cccnc1 [(-)-3-(N-methylpyrrolidino)pyridine] + OCCCO
Key: 1.45763
